target: human P2X3 receptor (Homo sapiens (Human)); assay: Intracellular calcium measurement (FLIPR, Fluo-4) of antagonist activity at human P2X3 receptors; format: cell-based; details: human P2X3, FLIPR calcium assay, agonist α,β-Me-ATP; read-out: hP2X3 IC50
pIC50: −log10 of the molar value.
pIC50 values by entry

[
  {
    "Compound": "Cc1ccc([C@@H](C)NC(=O)c2cc(OC3COC3)cc(-c3ncc(C)s3)c2)nn1 [Example 47]",
    "pIC50": 7.09
  },
  {
    "Compound": "Cc1cnc(-c2cc(OC3COC3)cc(C(=O)NCc3cnc(C(F)(F)F)nc3)c2)s1 [Example 167]",
    "pIC50": 7.14
  },
  {
    "Compound": "C#CCOc1cc(C(=O)N[C@H](C)c2cnc(C)nc2)cc(-c2ncc(C)s2)c1 [Example 39]",
    "pIC50": 7.09
  },
  {
    "Compound": "Cc1cnc(-c2cc(OC3CCS(=O)(=O)CC3)cc(C(=O)N[C@H](C)c3ccc(C(F)(F)F)nc3)c2)s1 [Example 233]",
    "pIC50": 7.80
  },
  {
    "Compound": "Cc1cnc(-c2cc(OC[C@@H]3CNCCO3)cc(C(=O)N[C@H](C)c3cnc(C(F)(F)F)nc3)c2)s1 [Example 350]",
    "pIC50": 7.85
  },
  {
    "Compound": "Cc1cnc(-c2cc(O[C@H]3C[C@H](N(C)C)C3)cc(C(=O)N[C@H](C)c3cnc(C(F)(F)F)nc3)c2)s1 [Example 165]",
    "pIC50": 7.09
  },
  {
    "Compound": "Cc1cnc(-c2cc(OC[C@@H]3CN(C)CCO3)cc(C(=O)N[C@H](C)c3ccc(C(F)(F)F)nc3)c2)s1 [Example 370]",
    "pIC50": 7.39
  }
]

----------
assay: Bidirectional Caco-2 cell permeability assay; type: in vitro ADME; conditions: human, Caco-2, pH 7.2; Papp B-A divided by Papp A-B

[
  {
    "Smiles representation": "CCc1cnc(-c2cc(OC[C@H]3CN(C)CCO3)cc(C(=O)N[C@H](C)c3ccc(C(F)(F)F)nn3)c2)s1",
    "efflux ratio at 2 h, 2 μM": 1.7
  }
]

----------
target: human P2X3 receptor (Homo sapiens (Human), UniProt P56373); assay: Intracellular calcium measurement (FLIPR, Fluo-4) of antagonist activity at human P2X3 receptors; format: cell-based; conditions: human P2X3, FLIPR calcium assay, agonist α,β-Me-ATP; read-out: hP2X3 IC50
pIC50: −log10 of the molar value.

[
  {
    "Molecule": "Cc1cnc(-c2cc(OCC34CC(CO3)N(C(C)C)C4)cc(C(=O)N[C@H](C)c3cnc(C(F)(F)F)nc3)c2)s1 (stereo partly shown) [Example 405]",
    "pIC50": 7.77
  },
  {
    "Molecule": "COc1ccc(CNC(=O)c2cc(OC3CCOCC3)cc(-c3ncc(C)s3)c2)nn1 [Example 88]",
    "pIC50": 7.52
  },
  {
    "Molecule": "Cc1cnc([C@@H](C)NC(=O)c2cc(OC[C@H]3CCCO3)cc(-c3ncc(C)s3)c2)cn1 [Example 64]",
    "pIC50": 7.28
  },
  {
    "Molecule": "Cc1cnc(-c2cc(OC3CC4CC3CN4C)cc(C(=O)N[C@H](C)c3cnc(C(F)(F)F)nc3)c2)s1 (stereo partly shown) [Example 209]",
    "pIC50": 7.52
  },
  {
    "Molecule": "Cc1cnc(-c2cc(OC[C@H]3CN(C)CCO3)cc(C(=O)N[C@H](C)c3ccc(C(F)F)nc3)c2)s1 [Example 369]",
    "pIC50": 7.96
  },
  {
    "Molecule": "Cc1cnc(-c2cc(OC3CN(C)C3)cc(C(=O)N[C@H](C)c3cnc(C(F)(F)F)nc3)c2)s1 [Example 143]",
    "pIC50": 7.08
  },
  {
    "Molecule": "Cc1cnc(-c2cc(O[C@@H]3CCOC3)cc(C(=O)N[C@H](C)c3cnc(C(F)(F)F)cn3)c2)s1 [Example 147]",
    "pIC50": 8.22
  }
]

----------
IC50 values by entry
biological target: human P2X3 receptor (Homo sapiens (Human), UniProt P56373); assay: Intracellular calcium measurement (FLIPR, Fluo-4) of antagonist activity at human P2X3 receptors; type: cell-based; conditions: human P2X3, FLIPR calcium assay, agonist α,β-Me-ATP; read-out: hP2X3 IC50

[
  {
    "Compound": "Cc1cnc(-c2cc(OCC3CC3)cc(C(=O)N[C@H](C)c3nnc(C)s3)c2)s1",
    "IC50, nM": 8
  },
  {
    "Compound": "CCc1cnc(-c2cc(O[C@@H]3CCOC3)cc(C(=O)N[C@H](C)c3cnc(C(F)(F)F)nc3)c2)s1",
    "IC50, nM": 2
  },
  {
    "Compound": "Cc1cnc(-c2cc(OC3C4COCC3CN(C(C)C)C4)cc(C(=O)N[C@H](C)c3cnc(C(F)(F)F)nc3)c2)s1 (stereo partly shown)",
    "IC50, nM": 34
  },
  {
    "Compound": "Cc1cnc(-c2cc(OC[C@H]3CN(C)CCO3)cc(C(=O)N[C@H](C)c3cnc(C(F)(F)F)nc3)c2)s1",
    "IC50, nM": 7
  }
]

----------
Target: human P2X2/3 receptor (Homo sapiens (Human), UniProt P56373+Q9UBL9)
Sequence (P56373 whole entry): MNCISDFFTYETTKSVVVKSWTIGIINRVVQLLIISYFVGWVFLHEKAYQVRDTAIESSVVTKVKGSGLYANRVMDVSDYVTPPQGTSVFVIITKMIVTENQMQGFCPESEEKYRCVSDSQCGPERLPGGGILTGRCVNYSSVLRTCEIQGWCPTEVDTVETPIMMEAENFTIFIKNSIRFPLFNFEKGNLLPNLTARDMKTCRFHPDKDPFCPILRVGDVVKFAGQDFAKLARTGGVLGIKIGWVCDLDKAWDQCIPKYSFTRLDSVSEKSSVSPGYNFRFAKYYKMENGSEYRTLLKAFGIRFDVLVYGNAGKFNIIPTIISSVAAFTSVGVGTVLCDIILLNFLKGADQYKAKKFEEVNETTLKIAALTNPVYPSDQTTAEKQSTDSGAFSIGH
Sequence (Q9UBL9 whole entry): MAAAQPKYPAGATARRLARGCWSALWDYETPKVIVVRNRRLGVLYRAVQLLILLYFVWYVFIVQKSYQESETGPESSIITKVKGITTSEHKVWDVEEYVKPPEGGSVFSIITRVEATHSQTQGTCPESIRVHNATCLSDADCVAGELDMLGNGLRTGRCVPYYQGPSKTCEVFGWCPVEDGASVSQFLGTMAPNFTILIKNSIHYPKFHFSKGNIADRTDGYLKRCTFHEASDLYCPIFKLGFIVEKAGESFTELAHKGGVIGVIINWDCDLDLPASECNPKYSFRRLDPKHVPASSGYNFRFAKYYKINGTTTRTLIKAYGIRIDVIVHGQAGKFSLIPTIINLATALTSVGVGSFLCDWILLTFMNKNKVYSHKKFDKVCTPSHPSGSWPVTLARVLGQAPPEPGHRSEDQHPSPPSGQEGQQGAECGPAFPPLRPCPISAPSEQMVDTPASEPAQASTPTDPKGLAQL
Assay: Intracellular calcium measurement (FLIPR, Fluo-4) of antagonist activity at human P2X2/3 receptors
Assay type: cell-based
Conditions: hP2X2/3 IC50 (nM)
Protocol: Intracellular Calcium Measurement to Assess Antagonist Activity at Human P2X3 and Human P2X2/3 Receptors A fluorescent imaging plate reader (FLEX/FLIPR station; Molecular Devices) was used to monitor intracellular calcium levels using the calcium-chelating dye Fluo-4 (Molecular Probes). […] The fluorescence was measured for an interval of 90 sec at 2 sec intervals and analyzed based on the increase in peak relative fluorescence units (RFU) compared to the basal fluorescence. […]
hey, just use condition met if measured IC50 is less than 900 nM, otherwise condition not met

[
  {
    "Compound": "CCc1cnc(-c2cc(O[C@@H]3CN4CCC3CC4)cc(C(=O)N[C@H](C)c3cnc(C(F)(F)F)nc3)c2)s1 [Example 173]",
    "Assigned label": "condition met"
  },
  {
    "Compound": "Cc1ncc([C@@H](C)NC(=O)c2cc(O[C@@H]3CCOC3)cc(-c3ncc(C)s3)c2)cn1 [Example 23]",
    "Assigned label": "condition not met"
  },
  {
    "Compound": "Cc1cnc(-c2cc(O[C@H]3CN4CCC3CC4)cc(C(=O)N[C@H](C)c3ccc(C(F)(F)F)nc3)c2)s1 [Example 172]",
    "Assigned label": "condition not met"
  },
  {
    "Compound": "Cc1ncc([C@@H](C)NC(=O)c2cc(O[C@H]3CCOC3)cc(-c3ncc(C)s3)c2)cn1 [Example 130]",
    "Assigned label": "condition not met"
  },
  {
    "Compound": "Cc1cnc(-c2cc(O[C@H]3CN4CCC3CC4)cc(C(=O)N[C@H](C)c3cnc(C(F)(F)F)nc3)c2)s1 [Example 168]",
    "Assigned label": "condition not met"
  },
  {
    "Compound": "Cc1cnc(-c2cc(O[C@@H]3CN4CCC3CC4)cc(C(=O)N[C@H](C)c3ccc(C(F)(F)F)nc3)c2)s1 [Example 175]",
    "Assigned label": "condition not met"
  },
  {
    "Compound": "CCc1cnc(-c2cc(O[C@H]3CN4CCC3CC4)cc(C(=O)N[C@H](C)c3cnc(C(F)(F)F)nc3)c2)s1 [Example 174]",
    "Assigned label": "condition met"
  }
]

----------
target: human P2X2/3 receptor (Homo sapiens (Human), UniProt P56373+Q9UBL9); test: Intracellular calcium measurement (FLIPR, Fluo-4) of antagonist activity at human P2X2/3 receptors; type: cell-based; conditions: human P2X2/3, FLIPR calcium assay, agonist α,β-Me-ATP; read-out: hP2X2/3 IC50
pIC50: −log10 of the molar value.
pIC50 values by entry

[
  {
    "Compound": "Cc1cnc(-c2cc(OC[C@H]3CCOC3)cc(C(=O)N[C@H](C)c3ccc(C(F)(F)F)nn3)c2)s1",
    "pIC50": 6.48
  },
  {
    "Compound": "Cc1cnc(-c2cc(OC3COC3)cc(C(=O)N[C@H](C)c3ccc(C(F)(F)F)nn3)c2)s1",
    "pIC50": 6.20
  },
  {
    "Compound": "Cc1cnc(-c2cc(OC3CCN(C)CC3F)cc(C(=O)N[C@H](C)c3cnc(C(F)(F)F)nc3)c2)s1 (stereo partly shown)",
    "pIC50": 7.34
  },
  {
    "Compound": "Cc1cnc(-c2cc(OCC34CC(CO3)N(C(=O)OC(C)(C)C)C4)cc(C(=O)N[C@H](C)c3cnc(C(F)(F)F)nc3)c2)s1 (stereo partly shown)",
    "pIC50": 6.27
  },
  {
    "Compound": "CC(=O)N1CCC(Oc2cc(C(=O)N[C@H](C)c3cnc(C(F)(F)F)nc3)cc(-c3ncc(C)s3)c2)CC1",
    "pIC50": 7.08
  },
  {
    "Compound": "Cc1cnc(-c2cc(OC3CCN(C(=O)OC(C)(C)C)CC3)cc(C(=O)N[C@H](C)c3cnc(C(F)(F)F)nc3)c2)s1",
    "pIC50": 6.48
  },
  {
    "Compound": "Cc1cnc(-c2cc(O[C@H]3C[C@H]4CC[C@@H](C3)N4C)cc(C(=O)N[C@H](C)c3cnc(C(F)(F)F)nc3)c2)s1",
    "pIC50": 6.03
  }
]
